B1: glmS ribozyme (parent)
chain: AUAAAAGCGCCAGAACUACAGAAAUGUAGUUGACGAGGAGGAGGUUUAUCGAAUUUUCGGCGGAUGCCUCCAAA

Variants of: B1
Assay: self-cleavage kobs at 10000 uM GlcN6P; higher = faster cleavage; RNA array
Conditions: with glucosamine-6-phosphate
Fewer inactive variants are shown than the library holds.
reportedMetric: self-cleavage kobs at 10000 uM GlcN6P

G40C G43U G51U	< 1e-05 s⁻¹

**Query** Which self-cleavage kobs at 10000 uM GlcN6P value is on record for G41C C67G ?
**Result** < 1e-05 s⁻¹

**Query** Which self-cleavage kobs at 10000 uM GlcN6P value is on record for A64G G66C ?
**Result** 0.0027 s⁻¹

**Query** Which self-cleavage kobs at 10000 uM GlcN6P value is on record for A39U A48G ?
**Result** 8.13e-05 s⁻¹

**Query** Which self-cleavage kobs at 10000 uM GlcN6P value is on record for A33C G43A G44C C61A C67U ?
**Result** < 1e-05 s⁻¹

**Query** Which self-cleavage kobs at 10000 uM GlcN6P value is on record for G38A U46C A53C U54C C68A ?
**Result** < 1e-05 s⁻¹

**Query** Which self-cleavage kobs at 10000 uM GlcN6P value is on record for G43C U56A ?
**Result** < 1e-05 s⁻¹

**Query** Which self-cleavage kobs at 10000 uM GlcN6P value is on record for G13C A15U C16G A39C ?
**Result** < 1e-05 s⁻¹

**Query** Which self-cleavage kobs at 10000 uM GlcN6P value is on record for C34G G41A ?
**Result** < 1e-05 s⁻¹

**Query** Which self-cleavage kobs at 10000 uM GlcN6P value is on record for A14U A39U ?
**Result** 0.00632 s⁻¹

**Query** Which self-cleavage kobs at 10000 uM GlcN6P value is on record for A53G U57G ?
**Result** 4.6e-05 s⁻¹
